Parameter melting point: see the listing below.

O=C1OC2CC1(O)CC(O)C2O (stereo not drawn)	184 to 188 °C
CC(C)(C)NC(=O)NC(Cc1ccccc1)C(O)C(O)C(Cc1ccccc1)NC(=O)NC(C)(C)C (stereo not drawn)	193 to 196 °C
CCCCCCCCCc1ccc(C(Sc2cccc(NC(=O)CC(=O)OC)c2)C(=O)CCCC(=O)OC)cc1 (stereo not drawn)	88 to 91 °C
CC(C)(C)OC(=O)Nc1ccc(F)c(F)c1	135 to 137 °C
CC(CF)(CF)n1cc(C(=O)O)c(=O)c2cc(F)c(N3C[C@@H]4NCCO[C@@H]4C3)cc21	> 250 °C

[in] Look up melting point of `Cc1noc(CCCCCCCOc2ccc(C3=NCCO3)cc2)c1CN1CCCC1` and report it.
[out] 98 to 99 °C

[in] Complete the entry with melting point for `Cc1nc(OCC(F)(F)F)c([N+](=O)[O-])c(N2CCN(c3ccc(F)cc3)CC2)n1`
[out] 92 to 95 °C

[in] Let me know recorded melting point for `CC(C)n1nc(-c2sc(NC(=O)c3ccc(CN(C)CCN(C)C)cc3)nc2-c2ccccc2)ccc1=O` , thanks.
[out] 131 to 133 °C

[in] For the molecule CN(C)C=CC(=O)c1ccc(OC[C@H]2CO[C@](Cn3ccnc3)(c3ccc(Cl)cc3Cl)O2)cc1 (relative stereo) , give its reported melting point.
[out] 145 °C

[in] Specify measured melting point for `CCCCc1nc2ccn(Cc3ccccc3C(=O)OCC)c(=O)c2n1Cc1ccc(-c2ccccc2-c2nnn[nH]2)cc1` .
[out] 203 to 204 °C

[in] Please supply the value of reported melting point for the item `COC(=O)NC(=NS(=O)(=O)NC(C)C)SCc1ccccc1`
[out] 76 to 78 °C

[in] Read the entry `O=C(O)C1CCN(Cc2ccccc2)CC1` and write its reported melting point.
[out] 167 to 168 °C

[in] Give the measured melting point for `CCCN1CCC=C(c2csc(NC(C)=O)n2)C1`
[out] 109 to 112 °C

[in] Read the entry `Cc1ccc(-n2ccc3c(Cl)nn(C)c(=O)c32)c(C)c1` and write its reported melting point.
[out] 119 to 120 °C

[in] Answer with reported melting point of `CC(=O)OCC(=O)[C@@]1(O)CCc2c(O)c3c(c(O)c2C1)C(=O)c1cccc(O)c1C3=O`
[out] 215 to 217 °C

[in] # return recorded melting point for entry `CCC(CC)n1ncn(-c2ccc(N3CCN(c4ccc5c(=O)n([C@H](C)[C@](O)(Cn6cncn6)c6ccc(F)cc6F)cnc5c4)CC3)cc2)c1=O`
[out] 208 to 210 °C

[in] Please report the measured melting point for `CC(C)(C)OC(=O)[C@@H]1CCCN1C(=O)CCS`
[out] 57 to 58 °C

[in] Quick one: give measured melting point for `OCCNC(=S)NC(=Nc1cccc2ccccc12)c1ccccc1`
[out] 131 to 132 °C

[in] Report melting point for O=C(NCCCCCC1CCSS1)c1cccnc1 (stereo not drawn)
[out] 41 to 44 °C

[in] Item `COc1ccc(P(=O)(c2ccccc2)c2ccccc2)c(I)c1OC` : provide melting point
[out] 178 to 180 °C

###

measurement_kind: melting point

The following molecules have reported results that may help.
Cc1ccc(C2CCN(C(=O)Nc3ccc4nc(CN5C(C)(C)CCCC5(C)C)ccc4c3)CC2)cc1	200 to 202 °C
COc1ccccc1C1CC(=O)Oc2ccc(C)cc21 (stereo unspecified)	140 °C
COc1c2c(c(OC)c(OC)c1OC)CC(CCCCCCCCOc1ccc(Cl)cc1)C2	38 to 42 °C

[in] Annotate the molecule `CC(=O)N1CCCC2=C1CCc1cc(Cl)ccc12` with its measured melting point.
[out] 106 to 108 °C

[in] Specify melting point for CC(C)(C)OC1OC(=O)C2C1C2(C)C (stereo unspecified) and stop.
[out] 115 °C

[in] Retrieve melting point measured for `Cc1c(-c2ccc(O)cc2)n(Cc2ccc(C#CCN3CCCCC3)cc2)c2ccc(O)cc12` and print it.
[out] 118 to 123 °C

[in] Complete the entry with melting point for `Cc1c[nH]c(C)c1C(C)(C)C`
[out] 70 to 71 °C

[in] Please indicate melting point recorded for `COC(=O)C1=CC=C(/C=C/c2ccc(OC)cc2)C2=CC(C(C)C)=CC=C(C)C2=C1C(=O)OC`
[out] 161 to 162 °C

[in] Item `COc1ccc(C(C)=O)cc1S(N)(=O)=O` : provide melting point
[out] 200 to 201 °C

[in] Provide melting point value for the following molecule: Cc1cccc(C)c1N(CC(C)Cl)C(=O)c1ccccc1 (stereo unspecified)
[out] 106 to 109 °C

[in] Tell me measured melting point for CCCCC1OC(=O)c2cc(N)ccc21 (stereo unspecified) please.
[out] 129 to 131 °C

These measurements were taken from a melting point compilation (Tetko et al.; mined from patent text by program, amines drawn as free bases though some values may be those of a salt).
